target: Estrogen receptor (Homo sapiens); conditions: mcf7
Sequence (P03372 whole entry): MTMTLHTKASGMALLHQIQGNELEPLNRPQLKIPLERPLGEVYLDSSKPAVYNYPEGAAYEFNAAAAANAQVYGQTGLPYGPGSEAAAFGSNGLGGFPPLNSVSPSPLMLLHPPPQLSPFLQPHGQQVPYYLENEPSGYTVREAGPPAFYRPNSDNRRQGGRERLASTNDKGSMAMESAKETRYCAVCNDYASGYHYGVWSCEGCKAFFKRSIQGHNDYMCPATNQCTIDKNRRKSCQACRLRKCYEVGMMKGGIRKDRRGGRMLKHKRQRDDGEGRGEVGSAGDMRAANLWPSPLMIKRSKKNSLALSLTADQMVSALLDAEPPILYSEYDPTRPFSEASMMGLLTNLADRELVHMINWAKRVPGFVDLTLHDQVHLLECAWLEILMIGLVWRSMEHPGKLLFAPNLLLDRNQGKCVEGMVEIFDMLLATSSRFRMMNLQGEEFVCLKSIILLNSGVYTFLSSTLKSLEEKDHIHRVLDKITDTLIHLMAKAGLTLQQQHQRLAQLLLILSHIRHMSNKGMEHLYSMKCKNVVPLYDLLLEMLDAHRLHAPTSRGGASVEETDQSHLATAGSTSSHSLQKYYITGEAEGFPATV
Description: Induction of estrogen receptor degradation in human MCF7 cells incubated for 4 hrs by Alexafluor -488 conjugate anti-mouse IgG staining based fluorescence method
Documented DC50 across a set of compounds
Give the value, in units of nM, as a plain number.

Sample answers from the record:
[
  {
    "molecule-smiles": "C[C@@H]1Cc2c(ccc3[nH]ncc23)[C@@H](c2c(F)cc(OCCN3CC(CF)C3)cc2F)N1CC(C)(C)F",
    "tested-system": "Estrogen receptor (Homo sapiens)",
    "assay-readout": "DC50",
    "observed-result": 0.06
  },
  {
    "molecule-smiles": "C[C@@H]1Cc2c([nH]c3ccccc23)[C@@H](c2c(F)cc(O[C@H]3CCN(CCCF)C3)cc2F)N1CC(F)(F)CO",
    "tested-system": "Estrogen receptor (Homo sapiens)",
    "assay-readout": "DC50",
    "observed-result": 0.12
  },
  {
    "molecule-smiles": "C[C@@H]1Cc2c([nH]c3ccccc23)[C@@H](c2c(F)cc(NC3CN(CCCF)C3)cc2F)N1CC(F)(F)CO",
    "tested-system": "Estrogen receptor (Homo sapiens)",
    "assay-readout": "DC50",
    "observed-result": 0.03
  }
]

Please find the next compound below.
Input: Return reported DC50; argument: C[C@@H]1Cc2c([nH]c3ccccc23)[C@@H](c2c(F)cc(NCCNCCCF)cc2F)N1CC(F)(F)CO
Output: 0.27

---

assay: in vivo; details: beagle, dog, iv, 1 mg/kg
assay-readout: clearance (mL/min/kg)
Give the value, in units of mL/min/kg, as a plain number.

Input: Return reported clearance; argument: C[C@@H]1Cc2c([nH]c3ccccc23)[C@@H](c2c(F)cc(NC3CN(CCCF)C3)cc2F)N1CC(F)(F)CO
Output: 3

---

test: in vitro; settings: mouse, mouse hepatocytes
assay-readout: CLint scaled at 1 h
Answer with the figure and its unit, nothing else.

Input: Return reported CLint scaled at 1 h; argument: C[C@@H]1Cc2c([nH]c3ccccc23)[C@@H](c2c(F)cc(NC3CN(CCCF)C3)cc2F)N1CC(F)(F)CO [GIREDESTRANT]
Output: 33 mL/min/kg

---

experiment: in vitro; conditions: cynomolgus monkey, cynomolgus monkey hepatocytes
assay-readout: CLint scaled at 1 h (mL/min/kg)
Give the value, in units of mL/min/kg, as a plain number.

Input: Return reported CLint scaled at 1 h; argument: C[C@@H]1Cc2c([nH]c3ccccc23)[C@@H](c2c(F)cc(NC3CN(CCCF)C3)cc2F)N1CC(F)(F)CO [GIREDESTRANT]
Output: 31

---

assay: in vitro; conditions: dog, dog hepatocytes
assay-readout: CLint scaled at 1 h

Input: Return reported CLint scaled at 1 h; argument: C[C@@H]1Cc2c([nH]c3ccccc23)[C@@H](c2c(F)cc(NC3CN(CCCF)C3)cc2F)N1CC(F)(F)CO
Output: < 7.8 mL/min/kg

---

test: in vitro; conditions: rat, microsomes
Documented CLint scaled at 1 h, 1 µM across a set of molecules
Give the value, in units of mL/min/kg, as a plain number.

[
  {
    "molecule": "C[C@@H]1Cc2c([nH]c3ccccc23)[C@@H](c2c(F)cc(NC3CN(CCCF)C3)cc2F)N1CC(F)(F)CO [GIREDESTRANT]",
    "units-of-measure": "mL/min/kg",
    "observed-result": 19
  }
]

Please find the next molecule below.
Input: Return reported CLint scaled at 1 h, 1 µM; argument: C[C@@H]1Cc2c([nH]c3cccc(F)c23)[C@@H](c2c(F)cc(NC3CN(CCCF)C3)cc2F)N1CC(F)(F)CO
Output: 19

---

assay: Apparent permeability in MDCK cells across apical to basolateral side at 10 uM incubated for 3 hrs by LC-MS/MS analysis; conditions: dog
Documented Papp A→B at 3 h, 10 µM across a set of molecules
Give the value, in units of ×10⁻⁶ cm/s, as a plain number.

Sample answers from the record:
[
  {
    "molecule-smiles": "C[C@@H]1Cc2c([nH]c3ccccc23)[C@@H](c2c(F)cc(OC3CN(CCCF)C3)cc2F)N1CC(C)(C)F",
    "units-of-measure": "×10⁻⁶ cm/s",
    "Papp A→B at 3 h, 10 µM": 0.4
  },
  {
    "molecule-smiles": "CC1=C(c2cccc(O)c2)[C@H](c2ccc(OCCN3CC(CF)C3)cc2)Oc2ccc(O)cc21",
    "units-of-measure": "×10⁻⁶ cm/s",
    "Papp A→B at 3 h, 10 µM": 4.6
  },
  {
    "molecule-smiles": "C[C@@H]1Cc2c([nH]c3ccccc23)[C@@H](c2c(F)cc(NC3CN(CCCF)C3)cc2F)N1CC(F)(F)CO",
    "units-of-measure": "×10⁻⁶ cm/s",
    "Papp A→B at 3 h, 10 µM": 3
  },
  {
    "molecule-smiles": "CC/C(=C(/c1ccc(/C=C/C(=O)O)cc1)c1ccc2[nH]ncc2c1)c1ccc(F)cc1Cl",
    "units-of-measure": "×10⁻⁶ cm/s",
    "Papp A→B at 3 h, 10 µM": 2.3
  }
]

Please find the next molecule below.
Input: Return reported Papp A→B at 3 h, 10 µM; argument: C[C@@H]1Cc2c([nH]c3cccc(F)c23)[C@@H](c2c(F)cc(NC3CN(CCCF)C3)cc2F)N1CC(F)(F)CO
Output: 0.9

---

assay: in vitro; conditions: human, hepatocytes
assay-readout: CLint scaled at 1 h
Answer with the figure and its unit, nothing else.

[
  {
    "molecule-smiles": "C[C@@H]1Cc2c([nH]c3cccc(F)c23)[C@@H](c2c(F)cc(NC3CN(CCCF)C3)cc2F)N1CC(F)(F)CO",
    "CLint scaled at 1 h": "12 mL/min/kg"
  },
  {
    "molecule-smiles": "CC/C(=C(/c1ccc(/C=C/C(=O)O)cc1)c1ccc2[nH]ncc2c1)c1ccc(F)cc1Cl",
    "CLint scaled at 1 h": "15 mL/min/kg"
  },
  {
    "molecule-smiles": "C[C@@H]1Cc2c([nH]c3ccccc23)[C@@H](c2c(F)cc(NC3CN(CCCF)C3)cc2F)N1CC(F)(F)CO",
    "CLint scaled at 1 h": "11 mL/min/kg"
  },
  {
    "molecule-smiles": "CC/C(=C(\\c1ccccc1)c1ccc(OCCN(C)C)cc1)c1ccccc1",
    "CLint scaled at 1 h": "12 mL/min/kg"
  }
]

Please find the next compound below.
Input: Return reported CLint scaled at 1 h; argument: CC/C(=C(\c1ccc(O)cc1)c1ccc(OCCN(C)C)cc1)c1ccccc1
Output: 14 mL/min/kg

---

test: in vitro; details: rat, microsomes
assay-readout: CLint scaled at 1 h, 1 µM

Sample answers from the record:
[
  {
    "molecule-smiles": "C[C@@H]1Cc2c([nH]c3ccccc23)[C@@H](c2c(F)cc(NCCNCCCF)cc2F)N1CC(F)(F)CO",
    "CLint scaled at 1 h, 1 µM": "< 6 mL/min/kg"
  },
  {
    "molecule-smiles": "C[C@@H]1Cc2c([nH]c3ccccc23)[C@@H](c2ccc(NC3CN(CCCF)C3)nc2)N1CC(F)(F)CO",
    "CLint scaled at 1 h, 1 µM": "23 mL/min/kg"
  },
  {
    "molecule-smiles": "C[C@@H]1Cc2c([nH]c3ccccc23)[C@@H](c2c(F)cc(OC3CN(CCCO)C3)cc2F)N1CC(F)(F)CO",
    "CLint scaled at 1 h, 1 µM": "10 mL/min/kg"
  },
  {
    "molecule-smiles": "C[C@@H]1Cc2c(ccc3[nH]ncc23)[C@@H](c2c(F)cc(OCCN3CC(CF)C3)cc2F)N1CC(C)(C)F",
    "CLint scaled at 1 h, 1 µM": "44 mL/min/kg"
  },
  {
    "molecule-smiles": "C[C@@H]1Cc2c([nH]c3ccccc23)[C@@H](c2c(F)cc(O[C@H]3CCN(CCCF)C3)cc2F)N1CC(F)(F)CO",
    "CLint scaled at 1 h, 1 µM": "35 mL/min/kg"
  },
  {
    "molecule-smiles": "C[C@@H]1Cc2c([nH]c3ccccc23)[C@@H](c2c(F)cc(NC3CN(CCC(F)F)C3)cc2F)N1CC(F)(F)CO",
    "CLint scaled at 1 h, 1 µM": "25 mL/min/kg"
  },
  {
    "molecule-smiles": "C[C@@H]1Cc2c([nH]c3ccccc23)[C@@H](c2c(F)cc(OCCN3CC(CF)C3)cc2F)N1CC(C)(C)F",
    "CLint scaled at 1 h, 1 µM": "29 mL/min/kg"
  }
]

Please find the next molecule below.
Input: Return reported CLint scaled at 1 h, 1 µM; argument: C[C@@H]1Cc2c([nH]c3ccccc23)[C@@H](c2c(F)cc(N[C@H]3CCN(CCCF)C3)cc2F)N1CC(F)(F)CO
Output: 26 mL/min/kg
